- test_name: in vitro
- test_context: human, hela cells, % viability
Measured viability at 28.5 h, 10 µM, listed per entry.

compound: O=C(NCc1ccccc1)/C(=N\O)c1ccccc1 [CBK288427]
viability at 28.5 h, 10 µM: 91.9%

Requested read-out: viability at 28.5 h, 10 µM. Entry: CSc1ncc(Cl)c(C(=O)Nc2sc3c(c2C(=O)NCc2ccccc2)CCCC3)n1 [CBK268976] 99.5%

Requested read-out: viability at 28.5 h, 10 µM. Entry: COc1cccc(NC(=O)C2CCCCC2C(=O)O)c1 (stereo not drawn) [CBK262410] 93.1%

Requested read-out: viability at 28.5 h, 10 µM. Entry: O=C(O)CNc1ccccc1C(=O)O [CBK260902] 120%
